Hey, just so you know, these numbers are from patent US7727960B2.

Biological target: human C5aR (CD88) (human, UniProt P21730 1-350)
Sequence (looked up): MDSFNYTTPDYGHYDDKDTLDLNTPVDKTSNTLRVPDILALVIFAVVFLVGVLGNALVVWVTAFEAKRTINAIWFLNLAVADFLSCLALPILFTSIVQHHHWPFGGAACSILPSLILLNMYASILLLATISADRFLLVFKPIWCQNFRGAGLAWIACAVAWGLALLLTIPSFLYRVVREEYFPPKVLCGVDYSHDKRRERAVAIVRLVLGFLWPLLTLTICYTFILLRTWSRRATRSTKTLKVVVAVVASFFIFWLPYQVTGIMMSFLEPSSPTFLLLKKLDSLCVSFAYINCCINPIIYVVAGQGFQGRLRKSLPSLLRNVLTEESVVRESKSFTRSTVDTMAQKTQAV
Assay: cell-based or functional assay
VALUE TYPE: IC50 activity group, enzyme release assay

// known answers, use as guide
Ac-Phe-Orn-Pro-omf-Bta-Phe-NH2 (peptide) ... < 200 nM
Ac-Phe-Orn-Pro-hle-Bta-5Ff-NH2 (peptide) ... < 200 nM

Reported IC50 activity group, enzyme release assay ( Ac-Phe-Orn-Aze-cha-Pff-Phe-NH2 (peptide) ) = < 200 nM

In plain terms, Ac-Phe-Orn-Pro-hle-Egc-Phe-NH2 (peptide) has a documented IC50 activity group, enzyme release assay of < 200 nM

Entry under test: Ac-Phe-Orn-Pro-hle-Bta-Cha-NH2 (peptide) . Its IC50 activity group, enzyme release assay was < 200 nM
